Structures can show the parent of a compound that is named as a salt.

{"columns": ["compound", "melting point"],
 "data": [
  ["CC(C)(C)OC(=O)N1CCn2c(nc3c(N)nc4ccccc4c32)C1", "207 °C"],
  ["CC(C)(C)[Si](C)(C)OC1CN(S(C)(=O)=O)Cc2nc3c(N)nc4ccccc4c3n2C1 (centres unmarked)", "256 to 258 °C"],
  ["CC1(C)Cn2c(nc3c(N)nc4ccccc4c32)CN1S(C)(=O)=O", "227 to 228 °C"],
  ["CC(C)(C)OC(=O)N1CCCn2c(nc3c(N)nc4ccccc4c32)C1", "213 °C"],
  ["CS(=O)(=O)N1CCCn2c(nc3c(N)nc4c(c32)CCCC4)C1", "270 to 272 °C"],
  ["CS(=O)(=O)N1CCCn2c(nc3c(N)nc4ccccc4c32)C1 (as salt: trifluoroacetate) [Example 7]", "250 to 250.9 °C"],
  ["CS(=O)(=O)N1CCn2c(nc3c(N)nc4ccccc4c32)C1 (as salt: trifluoroacetate)", "242 to 243 °C"],
  ["CS(=O)(=O)N1CCCn2c(nc3c(N)nc4ccccc4c32)C1 [Example 8]", "280 °C"],
  ["CS(=O)(=O)N1CCn2c(nc3c(N)nc4cc(Br)ccc4c32)C1", "315 to 317 °C"],
  ["CS(=O)(=O)N1Cc2nc3c(N)nc4ccccc4c3n2CC(O)C1 (centres unmarked)", "282 to 283 °C"],
  ["CS(=O)(=O)N1CCCn2c(nc3c(N)nc4cc(OCc5ccccc5)ccc4c32)C1", "235 to 236 °C"],
  ["CS(=O)(=O)N1CCn2c(nc3c(N)nc4cc(OCc5ccccc5)ccc4c32)C1", "266 to 268 °C"],
  ["CS(=O)(=O)N1CCCn2c(nc3c(N)nc4cc(Br)ccc4c32)C1", "303 °C"],
  ["CS(=O)(=O)N1CCCn2c(nc3c(N)nc4cc(-c5cccnc5)ccc4c32)C1", "302 °C"]
]}
